IC80 (neutralization in TZM.bl cells) overview
# target_or_system: HIV-1 pseudovirus 263-8 (HIV-1)
# assay_explanation: cell-based or functional assay
assay_readout: IC80 (neutralization in TZM.bl cells) (µg/mL)

[
  {
    "binder": "MS-79 (antibody, V domains shown) VH: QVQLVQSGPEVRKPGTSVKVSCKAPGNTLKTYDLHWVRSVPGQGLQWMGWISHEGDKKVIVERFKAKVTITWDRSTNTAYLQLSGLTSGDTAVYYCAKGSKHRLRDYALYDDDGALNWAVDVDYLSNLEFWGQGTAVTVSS VL: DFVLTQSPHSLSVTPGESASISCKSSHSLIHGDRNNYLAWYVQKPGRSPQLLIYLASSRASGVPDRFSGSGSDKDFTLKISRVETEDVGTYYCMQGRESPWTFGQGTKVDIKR",
    "assay_readout": "IC80 (neutralization in TZM.bl cells)",
    "recorded_number": 0.067
  },
  {
    "binder": "MS-82 (antibody, V domains shown) VH: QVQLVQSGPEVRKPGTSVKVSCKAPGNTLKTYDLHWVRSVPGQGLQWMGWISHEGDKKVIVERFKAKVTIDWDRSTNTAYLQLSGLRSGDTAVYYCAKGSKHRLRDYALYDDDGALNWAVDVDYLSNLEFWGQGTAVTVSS VL: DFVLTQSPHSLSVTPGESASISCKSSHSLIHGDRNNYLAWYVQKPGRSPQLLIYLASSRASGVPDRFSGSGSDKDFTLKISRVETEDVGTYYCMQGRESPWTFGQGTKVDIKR",
    "assay_readout": "IC80 (neutralization in TZM.bl cells)",
    "recorded_number": 0.033
  },
  {
    "binder": "MS-80 (antibody, V domains shown) VH: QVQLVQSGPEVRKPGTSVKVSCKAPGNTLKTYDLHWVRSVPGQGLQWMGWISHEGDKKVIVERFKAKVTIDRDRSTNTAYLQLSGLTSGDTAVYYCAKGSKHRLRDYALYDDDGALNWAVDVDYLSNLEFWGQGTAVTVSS VL: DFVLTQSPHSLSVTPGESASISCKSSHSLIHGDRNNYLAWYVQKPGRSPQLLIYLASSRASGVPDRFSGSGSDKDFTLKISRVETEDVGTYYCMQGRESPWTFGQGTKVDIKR",
    "assay_readout": "IC80 (neutralization in TZM.bl cells)",
    "recorded_number": 0.173
  },
  {
    "binder": "MS-76 (antibody, V domains shown) VH: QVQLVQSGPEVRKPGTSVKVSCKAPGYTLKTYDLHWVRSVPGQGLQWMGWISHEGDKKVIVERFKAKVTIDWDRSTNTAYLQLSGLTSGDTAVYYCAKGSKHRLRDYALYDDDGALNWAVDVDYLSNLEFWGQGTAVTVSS VL: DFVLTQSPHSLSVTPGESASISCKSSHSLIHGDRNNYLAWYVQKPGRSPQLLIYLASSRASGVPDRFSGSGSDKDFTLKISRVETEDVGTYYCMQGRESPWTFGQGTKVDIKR",
    "assay_readout": "IC80 (neutralization in TZM.bl cells)",
    "recorded_number": 0.053
  },
  {
    "binder": "MS-72 (antibody, V domains shown) VH: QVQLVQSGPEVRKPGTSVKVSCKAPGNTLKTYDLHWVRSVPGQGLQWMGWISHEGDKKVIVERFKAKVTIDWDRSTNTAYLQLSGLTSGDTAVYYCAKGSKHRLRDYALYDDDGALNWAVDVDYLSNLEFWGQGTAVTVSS VL: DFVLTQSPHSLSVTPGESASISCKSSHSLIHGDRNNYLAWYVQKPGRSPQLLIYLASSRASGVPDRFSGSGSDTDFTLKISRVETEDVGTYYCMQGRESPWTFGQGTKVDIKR",
    "assay_readout": "IC80 (neutralization in TZM.bl cells)",
    "recorded_number": 0.057
  }
]
